tested.system: APJ (orphan G protein-coupled receptor protein)
Sequence (P35414 whole entry): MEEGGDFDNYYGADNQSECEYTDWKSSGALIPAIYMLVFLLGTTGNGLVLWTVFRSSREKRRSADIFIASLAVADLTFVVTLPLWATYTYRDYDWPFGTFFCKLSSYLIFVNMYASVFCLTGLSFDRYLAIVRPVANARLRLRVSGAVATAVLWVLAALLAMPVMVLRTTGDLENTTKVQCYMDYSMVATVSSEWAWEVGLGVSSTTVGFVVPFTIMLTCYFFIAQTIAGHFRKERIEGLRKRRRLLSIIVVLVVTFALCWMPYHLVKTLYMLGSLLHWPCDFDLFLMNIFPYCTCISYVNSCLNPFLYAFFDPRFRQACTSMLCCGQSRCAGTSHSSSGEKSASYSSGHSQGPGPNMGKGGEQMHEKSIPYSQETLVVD
experimental.details: radioligand competition, 125I-labelled compound of Ref. Ex. 1 (100 pM), CHO-A10 membrane fraction
Starred links: 1 amine or outer side, 2 acyl side, 3 side chain; linkers in the order of their positions; H or OH if unused. Non-standard residues stand in square brackets, D forms with d. No end group written: not given here. Phe(4-Cl) = N[C@@H](Cc1ccc(Cl)cc1)C(=O)O; Adipoyl = O=C(CCCCC(=O)[*:2])[*:1]; Cha = N[C@@H](CC1CCCCC1)C(=O)O; Dap = NC[C@H](N)C(=O)O
Could you please report measured pIC50 for the items listed next?
Numbers only, as −log10 of the molar value.

Some binders with known pIC50 results, for comparison:
RPRLFARGP[Cha]PX (not fully specified (residue 12); printed as Arg-Pro-Arg-Leu-Phe-Ala-Arg-Gly-Pro-Cha-Pro-Phe(Cl)) [Arg-Pro-Arg-Leu-Phe-Ala-Arg-Gly-Pro-Cha-Pro-Phe(Cl)]
8.64
RPRLFHKGP[Cha]PF [Arg-Pro-Arg-Leu-Phe-His-Lys-Gly-Pro-Cha-Pro-Phe]
8.10

Read the next record carefully.
[Q] Query: pIC50; subject: RPRLS[Dap](Adipoyl)RGP[Cha]P[Phe(4-Cl)] [Arg-Pro-Arg-Leu-Ser-Dap(Adi)-Arg-Gly-Pro-Cha-Pro-Phe(Cl)]
[A] 9.38
